The reported numbers originate from paper PMC9101838.

TESTED TARGET: Cystic fibrosis transmembrane conductance regulator (CFTR) (Homo sapiens, UniProt P13569)
Construct: human WT-CFTR
Sequence (P13569 whole entry): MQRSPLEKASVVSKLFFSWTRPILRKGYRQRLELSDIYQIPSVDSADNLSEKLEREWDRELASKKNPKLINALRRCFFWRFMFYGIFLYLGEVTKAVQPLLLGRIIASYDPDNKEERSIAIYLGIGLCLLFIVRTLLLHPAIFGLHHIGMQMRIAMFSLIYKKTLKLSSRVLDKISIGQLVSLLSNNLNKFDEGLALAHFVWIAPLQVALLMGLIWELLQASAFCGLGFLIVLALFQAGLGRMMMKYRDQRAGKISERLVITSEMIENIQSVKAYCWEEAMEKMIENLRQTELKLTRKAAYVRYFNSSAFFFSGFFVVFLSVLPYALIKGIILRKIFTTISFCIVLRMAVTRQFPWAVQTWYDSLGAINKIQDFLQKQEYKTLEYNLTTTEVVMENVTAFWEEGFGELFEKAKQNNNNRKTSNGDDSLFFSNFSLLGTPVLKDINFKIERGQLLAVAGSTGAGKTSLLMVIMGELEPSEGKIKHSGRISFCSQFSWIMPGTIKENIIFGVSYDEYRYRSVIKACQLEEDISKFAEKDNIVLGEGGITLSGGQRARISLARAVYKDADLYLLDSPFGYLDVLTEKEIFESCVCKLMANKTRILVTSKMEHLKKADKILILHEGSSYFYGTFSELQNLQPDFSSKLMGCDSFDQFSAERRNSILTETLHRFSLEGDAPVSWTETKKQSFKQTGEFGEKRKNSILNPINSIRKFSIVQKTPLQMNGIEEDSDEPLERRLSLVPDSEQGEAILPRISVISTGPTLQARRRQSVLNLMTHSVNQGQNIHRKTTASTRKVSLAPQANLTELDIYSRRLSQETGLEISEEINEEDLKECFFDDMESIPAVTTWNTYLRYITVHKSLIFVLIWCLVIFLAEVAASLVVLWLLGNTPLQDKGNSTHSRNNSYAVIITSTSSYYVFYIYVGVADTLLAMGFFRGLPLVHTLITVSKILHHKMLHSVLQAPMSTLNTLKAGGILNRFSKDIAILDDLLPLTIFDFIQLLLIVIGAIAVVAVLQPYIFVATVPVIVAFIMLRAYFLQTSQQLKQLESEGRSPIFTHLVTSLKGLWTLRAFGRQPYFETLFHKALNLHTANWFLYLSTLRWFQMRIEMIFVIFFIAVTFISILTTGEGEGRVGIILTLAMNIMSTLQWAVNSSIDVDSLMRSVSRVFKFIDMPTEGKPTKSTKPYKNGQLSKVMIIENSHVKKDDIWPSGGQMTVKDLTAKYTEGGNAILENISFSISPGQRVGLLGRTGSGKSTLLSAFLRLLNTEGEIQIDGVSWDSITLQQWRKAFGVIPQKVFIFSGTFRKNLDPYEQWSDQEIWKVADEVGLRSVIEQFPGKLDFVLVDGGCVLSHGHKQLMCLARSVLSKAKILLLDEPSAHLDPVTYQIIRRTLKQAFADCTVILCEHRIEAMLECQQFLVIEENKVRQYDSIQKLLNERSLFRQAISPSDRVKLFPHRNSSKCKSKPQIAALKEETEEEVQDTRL
MEASUREMENT NOTES: apical membrane current in FRT cells expressing human WT-CFTR; whole-cell patch clamp in CHO-K1 cells; no change in cAMP
READOUT LABEL: pEC50
Answers are plain numbers, as −log10 of the molar value.

Request: State pEC50 on Cystic fibrosis transmembrane conductance regulator (CFTR) (Homo sapiens, UniProt P13569). Entry: CCOc1ccc(NC(=O)c2cc3nccc(-c4ccc(OC)c(OC)c4)n3n2)cc1
Result: 6.59
